Target: Presenilin-1 (Homo sapiens)
Assay: Affinity Phenotypic Cellular interaction (Abeta42 inhibition assay (electrochemiluminescent detection of peptides secreted by SH-SY5Y cells stably overexpressing the APP C-terminal fragment SPA4CT)) EUB0000739a PSEN1
Set-up: mode of action Negative control for GSM1, recommended concentration 1 uM
OBSERVED PROPERTY: IC50

Give IC50; test system Presenilin-1 (Homo sapiens); compound "COc1cc(-c2cn([C@H]3CCc4ccccc4N(CC(F)(F)F)C3=O)nn2)ccc1-n1ccc(C)n1"
> 10 µM

---

Molecular target: Mitogen-activated protein kinase 11 (Homo sapiens, UniProt Q15759)
Sequence (Q15759 whole entry): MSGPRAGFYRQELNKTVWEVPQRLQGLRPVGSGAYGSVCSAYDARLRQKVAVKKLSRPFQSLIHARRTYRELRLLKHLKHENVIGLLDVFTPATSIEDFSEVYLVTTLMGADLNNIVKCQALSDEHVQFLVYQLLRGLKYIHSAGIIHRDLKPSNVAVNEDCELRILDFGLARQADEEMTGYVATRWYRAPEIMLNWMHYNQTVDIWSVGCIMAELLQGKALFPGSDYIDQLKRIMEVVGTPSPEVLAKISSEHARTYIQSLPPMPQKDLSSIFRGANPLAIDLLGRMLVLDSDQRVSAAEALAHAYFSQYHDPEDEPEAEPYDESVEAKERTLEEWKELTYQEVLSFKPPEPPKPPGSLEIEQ
Assay: Affinity Phenotypic Cellular interaction (TNF-a release (stimmulated by LPS in human WB)) EUB0000718a MAPK11
Assay type: functional
Set-up: mode of action Inhibitor, recommended concentration 1 uM
OBSERVED PROPERTY: IC50 (nM)
Respond with the bare value in nM.

Please look at this compound and report its IC50: "O=C(NCCN1CCOCC1)c1ccc2c(c1)C(=O)c1ccc(Nc3ccc(F)c(NC(=O)c4ccccc4)c3)cc1CC2"
38

---

Biological target: Histone-lysine N-methyltransferase SMYD3 (Homo sapiens)
Sequence (Q9H7B4 whole entry): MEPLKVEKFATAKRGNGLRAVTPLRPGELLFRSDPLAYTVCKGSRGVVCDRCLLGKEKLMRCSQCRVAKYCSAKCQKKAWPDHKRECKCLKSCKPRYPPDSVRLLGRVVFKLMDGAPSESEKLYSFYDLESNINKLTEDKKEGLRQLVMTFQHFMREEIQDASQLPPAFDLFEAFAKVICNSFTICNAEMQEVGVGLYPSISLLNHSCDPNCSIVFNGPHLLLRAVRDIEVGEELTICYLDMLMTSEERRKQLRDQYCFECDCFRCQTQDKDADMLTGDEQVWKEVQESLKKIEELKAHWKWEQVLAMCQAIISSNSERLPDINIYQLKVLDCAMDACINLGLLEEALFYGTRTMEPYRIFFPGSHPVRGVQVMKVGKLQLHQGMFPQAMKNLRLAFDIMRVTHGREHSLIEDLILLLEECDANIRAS
Assay: Affinity Phenotypic Cellular interaction (Immunoblot (inhibition of MAP3K2 methylation in HeLa cells)) EUB0000221b SMYD3
Assay type: cell-based
Design: mode of action Peptide-competitive inhibitor, recommended concentration 1 uM
OBSERVED PROPERTY: pIC50
Quick note: pIC50 values are minus log10 of concentrations in mol/L.

Please look at this molecule and report its pIC50: C[C@H]1CC(=O)Nc2cc(C(=O)NCCC3CC3)ccc2N1C(=O)N1CC2CC2C1 (stereo partly specified)
6.74

---

Target: MAP kinase-activated protein kinase 2 (Homo sapiens, UniProt P49137)
Sequence (P49137 whole entry): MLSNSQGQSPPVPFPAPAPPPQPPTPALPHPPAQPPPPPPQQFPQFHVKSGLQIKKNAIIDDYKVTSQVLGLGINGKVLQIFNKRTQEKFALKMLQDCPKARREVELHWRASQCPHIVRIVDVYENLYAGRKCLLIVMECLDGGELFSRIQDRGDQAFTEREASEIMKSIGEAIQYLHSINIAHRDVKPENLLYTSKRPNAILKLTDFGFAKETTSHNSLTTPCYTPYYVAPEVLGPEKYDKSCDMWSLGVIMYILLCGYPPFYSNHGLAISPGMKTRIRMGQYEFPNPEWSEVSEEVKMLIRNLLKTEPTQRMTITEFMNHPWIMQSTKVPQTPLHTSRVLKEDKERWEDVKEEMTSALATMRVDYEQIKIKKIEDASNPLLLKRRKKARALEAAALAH
Assay: Affinity Phenotypic Cellular interaction (Cell-based TNFa assay (MesoScale Discovery; inhibition of LPS stimulated TNFa production in human U937 cells)) EUB0000056c MAPKAPK2
OBSERVED PROPERTY: IC50
Please answer using the number first and the unit second.

Please look at this compound and report its IC50: "Cc1ccc(-c2ccc3c(ccc4sc5c(c43)NC[C@@H](C)NC5=O)n2)cn1"
159 nM

---

Target: Serine/threonine-protein kinase 4 (Homo sapiens, UniProt Q13043)
Sequence (Q13043 whole entry): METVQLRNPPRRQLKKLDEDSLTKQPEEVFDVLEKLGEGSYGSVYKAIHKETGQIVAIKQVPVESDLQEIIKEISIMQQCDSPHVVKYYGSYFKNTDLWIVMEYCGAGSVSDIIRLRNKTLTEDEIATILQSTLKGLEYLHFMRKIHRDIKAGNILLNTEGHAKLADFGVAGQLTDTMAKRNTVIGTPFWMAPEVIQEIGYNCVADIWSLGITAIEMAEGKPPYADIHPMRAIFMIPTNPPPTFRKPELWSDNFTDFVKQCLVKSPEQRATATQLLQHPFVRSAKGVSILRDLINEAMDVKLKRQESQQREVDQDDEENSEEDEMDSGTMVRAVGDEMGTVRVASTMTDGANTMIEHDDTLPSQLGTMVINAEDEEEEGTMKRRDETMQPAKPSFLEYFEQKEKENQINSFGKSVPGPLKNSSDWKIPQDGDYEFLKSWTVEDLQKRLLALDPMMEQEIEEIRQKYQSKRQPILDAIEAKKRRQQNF
Assay: Affinity Phenotypic Cellular interaction (Immunoblotting (phosphorylation of endogenous MOB1; LATS1/2; and YAP in human liver carcinoma (HepG2) cells)) EUB0000178b STK4
OBSERVED PROPERTY: EC50

Please look at this molecule and report its EC50: "CN1C(=O)c2sccc2N(C)c2nc(Nc3ccc(S(N)(=O)=O)cc3)ncc21"
> 100 nM

---

Experiment: Affinity Phenotypic Cellular interaction (CellTiter-Glo assay (Promega, cell proliferation assay in LNCaP cell line)) EUB0000215b EZH2
OBSERVED PROPERTY: IC50 (µM)
Respond with the bare value in µM.

Please look at this compound and report its IC50: "CCCc1cc(C)[nH]c(=O)c1CNC(=O)c1cc(-c2ccnc(N3CCN(C)CC3)c2)cc2c1cnn2C(C)C"
2.9

---

Biological target: Mitogen-activated protein kinase kinase kinase kinase 2 (Homo sapiens)
Sequence (Q12851 whole entry): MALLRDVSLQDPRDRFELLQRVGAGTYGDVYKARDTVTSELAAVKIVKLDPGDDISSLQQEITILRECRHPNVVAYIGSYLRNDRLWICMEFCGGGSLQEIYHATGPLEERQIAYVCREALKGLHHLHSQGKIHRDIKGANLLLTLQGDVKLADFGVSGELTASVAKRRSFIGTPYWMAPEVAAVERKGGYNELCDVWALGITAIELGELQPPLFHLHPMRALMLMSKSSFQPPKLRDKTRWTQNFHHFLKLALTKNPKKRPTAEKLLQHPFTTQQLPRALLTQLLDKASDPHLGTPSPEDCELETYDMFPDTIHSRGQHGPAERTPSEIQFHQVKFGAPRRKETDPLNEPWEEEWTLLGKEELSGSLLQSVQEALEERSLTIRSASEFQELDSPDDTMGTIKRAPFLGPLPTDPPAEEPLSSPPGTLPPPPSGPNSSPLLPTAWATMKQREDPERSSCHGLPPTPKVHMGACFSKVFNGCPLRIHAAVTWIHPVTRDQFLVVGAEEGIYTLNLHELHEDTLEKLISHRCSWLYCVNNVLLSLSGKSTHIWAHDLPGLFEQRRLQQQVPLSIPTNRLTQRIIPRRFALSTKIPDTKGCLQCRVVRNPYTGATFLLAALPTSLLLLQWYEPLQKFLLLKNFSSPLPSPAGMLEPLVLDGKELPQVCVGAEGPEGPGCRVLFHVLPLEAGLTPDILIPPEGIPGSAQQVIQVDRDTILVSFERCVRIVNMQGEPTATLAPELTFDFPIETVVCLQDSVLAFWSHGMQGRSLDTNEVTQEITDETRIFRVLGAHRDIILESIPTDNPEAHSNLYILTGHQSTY
Assay: Affinity Phenotypic Cellular interaction (Western Blot (inhibition in IL-1-induced phosphorylation of MAPK14)) EUB0000238b MAP4K2
OBSERVED PROPERTY: pEC50
Quick note: pEC50 values are minus log10 of concentrations in mol/L.

Please look at this molecule and report its pEC50: "CNc1cc(Oc2cc(C(=O)Nc3cc(N4CCN(C)CC4)cc(C(F)(F)F)c3)ccc2C)ncn1"
6.30

---

Target: Phosphatidylinositol 3-kinase catalytic subunit type 3 (Homo sapiens)
Sequence (Q8NEB9 whole entry): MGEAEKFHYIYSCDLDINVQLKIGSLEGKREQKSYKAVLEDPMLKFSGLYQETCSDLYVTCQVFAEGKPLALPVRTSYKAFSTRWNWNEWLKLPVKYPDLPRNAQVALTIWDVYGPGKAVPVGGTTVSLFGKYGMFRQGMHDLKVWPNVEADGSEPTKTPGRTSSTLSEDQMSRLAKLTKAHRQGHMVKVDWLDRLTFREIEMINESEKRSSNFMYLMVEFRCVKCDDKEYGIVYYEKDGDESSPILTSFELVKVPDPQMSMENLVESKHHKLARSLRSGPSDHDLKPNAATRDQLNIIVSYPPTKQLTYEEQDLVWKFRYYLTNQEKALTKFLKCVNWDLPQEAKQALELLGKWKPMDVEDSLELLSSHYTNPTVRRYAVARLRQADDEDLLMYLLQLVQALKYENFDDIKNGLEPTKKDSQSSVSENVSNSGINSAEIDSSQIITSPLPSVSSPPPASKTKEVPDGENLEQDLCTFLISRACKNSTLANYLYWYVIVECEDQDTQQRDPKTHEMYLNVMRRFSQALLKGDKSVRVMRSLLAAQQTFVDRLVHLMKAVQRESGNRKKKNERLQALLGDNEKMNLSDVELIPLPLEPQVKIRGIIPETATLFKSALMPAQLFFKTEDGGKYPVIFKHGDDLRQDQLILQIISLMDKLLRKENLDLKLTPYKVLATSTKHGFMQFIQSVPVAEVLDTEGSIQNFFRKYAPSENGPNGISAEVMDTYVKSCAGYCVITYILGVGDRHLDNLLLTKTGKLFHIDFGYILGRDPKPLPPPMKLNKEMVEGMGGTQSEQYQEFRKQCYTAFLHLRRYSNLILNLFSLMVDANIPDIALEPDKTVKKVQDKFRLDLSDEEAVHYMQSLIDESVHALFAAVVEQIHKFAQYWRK
Experiment: Affinity Phenotypic Cellular interaction (Inhibition of PtdIns(3)P levels (at endosomes probed by suppression of endosomal localization of GFP–2×FYVEHrs; U2OS cells)) EUB0000631a PIK3C3
OBSERVED PROPERTY: IC50

Please look at this compound and report its IC50: "CC(C)(O)CNc1ncc(-c2ccnc(Nc3ccnc(Cl)c3)n2)c(CC2CC2)n1"
< 100 nM

---

Target: Histone acetyltransferase p300 (Homo sapiens, UniProt Q09472)
Test: Affinity Phenotypic Cellular interaction (Inhibition of H3K27Ac (DU-145 cells)) EUB0000326a EP300
OBSERVED PROPERTY: IC50

Give IC50; test system Histone acetyltransferase p300 (Homo sapiens, UniProt Q09472); molecule CNC(=O)Nc1ccc2c(c1)[C@@]1(CC2)OC(=O)N(CC(=O)N(Cc2ccc(F)cc2)[C@@H](C)C(F)(F)F)C1=O [A-486]
> 10 µM

---

Target: Dual specificity protein kinase CLK1 (Homo sapiens, UniProt P49759)
Sequence (P49759 whole entry): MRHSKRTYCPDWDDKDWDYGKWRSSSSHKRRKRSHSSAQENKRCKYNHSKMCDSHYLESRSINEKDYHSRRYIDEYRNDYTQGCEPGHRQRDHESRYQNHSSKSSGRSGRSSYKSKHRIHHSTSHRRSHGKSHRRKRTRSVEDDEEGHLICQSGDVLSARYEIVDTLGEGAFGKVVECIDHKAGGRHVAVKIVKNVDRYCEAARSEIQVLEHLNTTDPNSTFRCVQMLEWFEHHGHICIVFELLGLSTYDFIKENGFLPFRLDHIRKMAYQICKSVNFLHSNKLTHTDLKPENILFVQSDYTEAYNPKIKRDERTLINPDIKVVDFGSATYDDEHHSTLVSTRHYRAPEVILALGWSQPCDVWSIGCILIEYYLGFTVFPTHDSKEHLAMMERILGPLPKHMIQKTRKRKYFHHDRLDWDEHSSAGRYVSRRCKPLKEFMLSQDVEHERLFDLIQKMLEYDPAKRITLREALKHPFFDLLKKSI
Test: Affinity Phenotypic Cellular interaction (Changed alternative splicing pattern determined by mRNAseq) EUB0000321b CLK1
pEC50: −log10 of the molar value.
OBSERVED PROPERTY: pEC50

Please look at this molecule and report its pEC50: "CN1CCN(C(=O)C(C)(C)c2ccc(C(=O)Nc3cn4cc(-c5ccncc5)ccc4n3)cc2)CC1"
> 6.30

---

Target: Integrin alpha-L (Homo sapiens)
Sequence (P20701 whole entry): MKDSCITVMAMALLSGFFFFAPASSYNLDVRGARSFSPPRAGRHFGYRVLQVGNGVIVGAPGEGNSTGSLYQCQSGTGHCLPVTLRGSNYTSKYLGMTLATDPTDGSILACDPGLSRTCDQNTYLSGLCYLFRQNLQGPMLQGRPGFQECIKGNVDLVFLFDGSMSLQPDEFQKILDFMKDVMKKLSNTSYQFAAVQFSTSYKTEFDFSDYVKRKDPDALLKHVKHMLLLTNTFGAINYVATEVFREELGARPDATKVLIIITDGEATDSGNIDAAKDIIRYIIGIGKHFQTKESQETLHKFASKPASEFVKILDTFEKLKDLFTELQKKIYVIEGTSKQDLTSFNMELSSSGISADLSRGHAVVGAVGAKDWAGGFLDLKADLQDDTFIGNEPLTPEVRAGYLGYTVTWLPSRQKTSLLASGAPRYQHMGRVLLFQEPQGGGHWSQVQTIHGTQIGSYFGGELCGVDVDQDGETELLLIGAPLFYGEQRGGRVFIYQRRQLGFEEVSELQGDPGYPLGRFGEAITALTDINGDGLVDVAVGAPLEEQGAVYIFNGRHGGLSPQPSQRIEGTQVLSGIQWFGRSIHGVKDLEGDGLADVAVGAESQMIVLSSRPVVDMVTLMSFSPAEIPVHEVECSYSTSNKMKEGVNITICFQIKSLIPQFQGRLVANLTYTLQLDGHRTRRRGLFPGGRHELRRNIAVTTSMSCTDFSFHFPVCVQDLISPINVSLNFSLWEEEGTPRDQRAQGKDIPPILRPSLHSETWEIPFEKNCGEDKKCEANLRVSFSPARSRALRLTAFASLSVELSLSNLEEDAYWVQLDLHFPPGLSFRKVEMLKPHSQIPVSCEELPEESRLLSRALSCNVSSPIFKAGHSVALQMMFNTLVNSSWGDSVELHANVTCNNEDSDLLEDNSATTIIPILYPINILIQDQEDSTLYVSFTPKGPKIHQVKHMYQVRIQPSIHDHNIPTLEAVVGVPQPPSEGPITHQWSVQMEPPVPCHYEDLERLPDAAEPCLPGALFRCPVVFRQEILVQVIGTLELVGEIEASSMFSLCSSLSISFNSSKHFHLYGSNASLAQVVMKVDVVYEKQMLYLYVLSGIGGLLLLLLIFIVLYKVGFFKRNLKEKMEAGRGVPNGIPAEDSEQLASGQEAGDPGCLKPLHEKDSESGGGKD
Type: functional, cell-based
Set-up: mode of action Inhibitor, recommended concentration 100 nM
OBSERVED PROPERTY: pIC50
Quick note: pIC50 values are minus log10 of concentrations in mol/L.

Give pIC50; test system Integrin alpha-L (Homo sapiens); compound C[C@H](NC(=O)c1cnc2n1[C@](C)(Cc1ccc(C#N)cc1)C(=O)N2c1cc(Cl)c(F)c(Cl)c1)C(=O)NC1(c2ccccn2)CC1 [BI 1950]
8.52

---

Molecular target: Activin receptor type-1B (Homo sapiens)
Sequence (P36896 whole entry): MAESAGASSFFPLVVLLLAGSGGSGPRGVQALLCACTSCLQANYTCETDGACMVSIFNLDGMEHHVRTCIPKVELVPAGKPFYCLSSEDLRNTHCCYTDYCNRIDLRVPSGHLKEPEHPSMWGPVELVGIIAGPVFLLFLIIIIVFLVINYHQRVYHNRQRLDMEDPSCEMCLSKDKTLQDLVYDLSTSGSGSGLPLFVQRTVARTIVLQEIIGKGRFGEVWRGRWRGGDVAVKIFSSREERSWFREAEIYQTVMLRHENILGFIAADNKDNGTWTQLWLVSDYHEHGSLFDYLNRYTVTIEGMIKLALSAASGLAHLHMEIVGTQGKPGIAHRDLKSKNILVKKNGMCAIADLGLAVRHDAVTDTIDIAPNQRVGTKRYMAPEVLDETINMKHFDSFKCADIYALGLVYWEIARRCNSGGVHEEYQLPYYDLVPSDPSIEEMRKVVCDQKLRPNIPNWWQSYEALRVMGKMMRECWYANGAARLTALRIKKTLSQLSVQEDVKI
Test: Affinity Phenotypic Cellular interaction (Western blot (inhibition of SMAD2/3 phosphorylation)) EUB0000312b ACVR1B
Set-up: mode of action Inhibitor, recommended concentration 1 uM
OBSERVED PROPERTY: EC50

Please look at this molecule and report its EC50: "Cc1cnc(-c2cc(Cl)ccc2F)cc1-n1c(=O)n(CC(N)=O)c2cnccc21"
> 1000 nM

---

Molecular target: UniProt:P49768
Assay: Affinity Phenotypic Cellular interaction (Abeta40 inhibition assay (in SH-SY5Y (SP4CT) cells; APP as target)) EUB0000750a PSEN1
Assay type: cell-based
Set-up: mode of action Inhibitor, recommended concentration 100 nM
OBSERVED PROPERTY: IC50

Please look at this compound and report its IC50: O=S(=O)(NC1CCC(c2cc(F)ccc2F)(S(=O)(=O)c2ccc(Cl)cc2)CC1)C(F)(F)F (stereo unspecified)
< 0.5 nM

Reference for the values: ChEMBL document CHEMBL5209897
